Where these numbers come from: the supplement of paper PMC11451515

cell viability overview
- Tested on: P12-Ichikawa
- protocol_summary: cell viability relative to DMSO control; higher = less cytotoxic
- settings: HPLM + 10% dialyzed FBS; 48 h; 0.00234 µM
Express your answer in %, writing the number without its unit.

Would you please look over these solved cases?
*Q* Hello, I am looking for reported cell viability with P12-Ichikawa for COC(=O)N1CCN(Cc2cccc(NC(=O)Nc3ccc(C)nc3)c2F)CC1 . Could you help?
*A* 102

*Q* Provide value of cell viability for this record tested with P12-Ichikawa: Cc1ccc(C(C)(O)c2nc3ccccc3s2)c(C)c1 (stereo not drawn)
*A* 110

*Q* API: value(readout= cell viability, system= P12-Ichikawa, query= CC#C[C@]1(O)CC[C@H]2[C@@H]/3CCC/4=C/C(=O)CCC4=C3[C@H](C[C@]12C)C5=CC=C(C=C5)N(C)C )
*A* 101

Now examine the next entry.
*Q* Any idea what cell viability came out for COc1ccc(Cc2nccc3cc(OC)c(OC)cc23)cc1OC on P12-Ichikawa?
*A* 120

* * *

- Tested on: P12-Ichikawa
- protocol_summary: cell viability relative to DMSO control; higher = less cytotoxic
- settings: RPMI 5 mM glucose + 10% dialyzed FBS; 48 h; 0.00702 µM
reported_property: cell viability (%)
Record the value in %, omitting the unit from your answer.

*Q* // cell viability lookup, key: Nc1nc(-c2nn(Cc3ccccc3F)c3ncccc23)nc(N)c1N1CCOCC1
*A* 100

*Q* Consider the compound O=C1c2c(O)cccc2[C@H]([C@@H]2O[C@H](CO)[C@@H](O)[C@H](O)[C@H]2O)c2cc(CO)cc(O)c21 and give its measured cell viability.
*A* 90.9

*Q* # get_value(readout='cell viability', item= O=C(NC1CCOCC1)c1ccc(-c2cc(-c3c[nH]nc3-c3ccccn3)ccn2)cc1 )
*A* 103

Others:
*Q* # query: cell viability of entry CNC(=O)[C@H](Cc1ccccc1)NC(=O)[C@H](CC(C)C)[C@H](CSc1cccs1)C(=O)NO
*A* 82.2

*Q* Name the recorded cell viability for O=C1NC(=O)[C@@H](c2cn3c4c(cccc24)CCC3)[C@@H]1c1c[nH]c2ccccc12 .
*A* 99.9

*Q* What cell viability value was documented for this compound, Cc1ccc(NC(=O)c2ccc(CN3CCN(C)CC3)cc2)cc1Nc1nccc(-c2cccnc2)n1 ?
*A* 108

*Q* Report cell viability for Nc1ccccc1NC(=O)c1ccc(CNc2nccc(-c3cccnc3)n2)cc1 please.
*A* 113

* * *

Parameter: cell viability. Scope: all listed entries.
- Test system: SEM cells
- protocol_summary: cell viability relative to DMSO control; higher = less cytotoxic
- settings: HPLM + 10% dialyzed FBS; 48 h; 0.569 µM
Put your answer as a value accompanied by its unit after it.

Some entries whose results are on file:
*Q* Using the record for CN(C)Cc1ccc(-c2nc3cccc4c3n2CCNC4=O)cc1 , report its cell viability.
*A* 122%

*Q* Could you tell me which cell viability is on file for Cc1nc(Nc2ncc(C(=O)Nc3c(C)cccc3Cl)s2)cc(N2CCN(CCO)CC2)n1 ?
*A* 80.2%

*Q* Give its cell viability value. Item: CCCCN(CCCC)CCC(O)c1cc2c(Cl)cc(Cl)cc2c2cc(C(F)(F)F)ccc12 (stereo not given)
*A* 36.2%

*Q* Could you tell me which cell viability is on file for CCOC(=O)Nc1ccc(NCc2ccc(F)cc2)cc1N ?
*A* 119%

Please turn your attention to the following entry.
*Q* Requested field: cell viability. Item: O=C(NC1CCOCC1)c1ccc(-c2cc(-c3c[nH]nc3-c3ccccn3)ccn2)cc1
*A* 114%
